All values here come from patent US20240376185A1.

- EXPERIMENTAL_TARGET: T1, recombinant tetanus toxin fragment C (rTTC) (Clostridium tetani, UniProt P04958 865-1315)
- T1 sequence: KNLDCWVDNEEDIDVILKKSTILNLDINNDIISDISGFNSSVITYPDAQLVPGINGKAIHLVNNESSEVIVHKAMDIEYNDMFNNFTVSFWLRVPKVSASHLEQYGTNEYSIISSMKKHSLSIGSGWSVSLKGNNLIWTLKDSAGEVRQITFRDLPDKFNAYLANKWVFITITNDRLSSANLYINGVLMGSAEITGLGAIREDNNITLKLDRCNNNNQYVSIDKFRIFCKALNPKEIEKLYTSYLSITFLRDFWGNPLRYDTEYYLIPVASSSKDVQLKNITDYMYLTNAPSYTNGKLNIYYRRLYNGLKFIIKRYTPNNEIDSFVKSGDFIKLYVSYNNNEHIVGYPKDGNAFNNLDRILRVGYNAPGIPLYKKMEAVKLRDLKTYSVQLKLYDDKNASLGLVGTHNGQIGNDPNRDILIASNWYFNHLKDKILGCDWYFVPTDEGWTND
- PROTOCOL_TEXT: ELISA, directly coated rTTC, unlabelled binder
Returns one of Yes or No; Yes when maximal absorbance at 450 nm is >= 0.6.

- SVT34L (VHH) VHH: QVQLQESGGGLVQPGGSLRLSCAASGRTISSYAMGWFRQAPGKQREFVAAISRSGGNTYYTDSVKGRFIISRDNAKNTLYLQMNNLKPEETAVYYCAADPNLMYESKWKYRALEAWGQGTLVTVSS: Yes
- SVT31L (VHH) VHH: QVQLQESGGGSVQAGGSLTLSCAASEFSYNDYTIAWFRRAAGKGRVEDGEGVASITKSYDRAYDNRIHYADSVKGRFTISRDNAKNTVYLQMTSLNPSDTAVYYCALDITPPGGIGASLTEGFLFDYWGQGTQVTVSS: No
- SVT16L (VHH) VHH: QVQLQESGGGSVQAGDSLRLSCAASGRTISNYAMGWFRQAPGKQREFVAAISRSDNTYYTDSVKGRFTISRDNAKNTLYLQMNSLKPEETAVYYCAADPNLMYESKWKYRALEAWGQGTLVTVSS: Yes
- SVT29L (VHH) VHH: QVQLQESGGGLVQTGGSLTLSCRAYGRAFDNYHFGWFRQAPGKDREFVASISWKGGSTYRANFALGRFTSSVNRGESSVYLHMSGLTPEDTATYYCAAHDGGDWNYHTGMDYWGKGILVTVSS: No
- SVT06L (VHH) VHH: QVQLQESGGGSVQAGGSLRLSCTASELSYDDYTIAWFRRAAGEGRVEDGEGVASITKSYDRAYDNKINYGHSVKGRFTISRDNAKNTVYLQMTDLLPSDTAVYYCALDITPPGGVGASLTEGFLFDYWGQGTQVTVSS: No
- SVT22L (VHH) VHH: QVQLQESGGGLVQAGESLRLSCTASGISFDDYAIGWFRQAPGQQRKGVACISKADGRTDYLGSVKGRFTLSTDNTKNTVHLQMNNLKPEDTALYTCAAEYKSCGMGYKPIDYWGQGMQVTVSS: Yes
- SVT13L (VHH) VHH: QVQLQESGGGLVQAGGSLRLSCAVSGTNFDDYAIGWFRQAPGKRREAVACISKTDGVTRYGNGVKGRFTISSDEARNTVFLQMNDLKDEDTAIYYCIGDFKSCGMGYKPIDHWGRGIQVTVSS: Yes
